Assign inhibition at 10 µM to each entry below.
# Test system: NIH/3T3 fibroblast cells
# experiment.summary: MTT assay on non-malignant fibroblasts (selectivity)
# Type: cell-based, murine
# measurement.context: Mus musculus, NIH3T3; NIH/3T3, 10 μM, 72 h; read-out: Growth inhibition (%) ± SEM

| mol.smiles | tgt | inhibition at 10 µM |
| --- | --- | --- |
| COC(=O)[C@]1(C)CCC[C@@]2(C)[C@@H]3CC[C@@]4(CN=[N+]=[N-])C[C@]3(CC[C@@H]21)C[C@H]4O | NIH/3T3 fibroblast cells | < 20% |
| COC(=O)[C@]1(C)CCC[C@@]2(C)[C@@H]3CC[C@@]4(CN[C@@H](C)c5cccc6ccccc56)C[C@]3(CC[C@@H]21)C[C@H]4O | NIH/3T3 fibroblast cells | < 20% |
| COC(=O)[C@]1(C)CCC[C@@]2(C)[C@@H]3CC[C@@]4(CN[C@H](C)c5cccc6ccccc56)C[C@]3(CC[C@@H]21)C[C@H]4O | NIH/3T3 fibroblast cells | < 20% |
| COC(=O)[C@]1(C)CCC[C@@]2(C)[C@@H]3CC[C@@]4(CO)C[C@]3(CC[C@@H]21)C[C@H]4NCc1cccc2ccccc12 | NIH/3T3 fibroblast cells | < 20% |
| COC(=O)[C@]1(C)CCC[C@@]2(C)[C@@H]3CC[C@@]4(CO)C[C@]3(CC[C@@H]21)C[C@@H]4N | NIH/3T3 fibroblast cells | < 20% |

Items follow; give inhibition at 10 µM for each.
1. COC(=O)[C@]1(C)CCC[C@@]2(C)[C@@H]3CC[C@@]4(Cn5cc(Cc6ccccc6)nn5)C[C@]3(CC[C@@H]21)CC4=O
2. COC(=O)[C@]1(C)CCC[C@@]2(C)[C@@H]3CC[C@@]4(CN=[N+]=[N-])C[C@]3(CC[C@@H]21)CC4=O
3. COC(=O)[C@]1(C)CCC[C@@]2(C)[C@@H]3CC[C@@]4(CN[C@H](C)c5ccc6ccccc6c5)C[C@]3(CC[C@@H]21)C[C@H]4O
4. COC(=O)[C@]1(C)CCC[C@@]2(C)[C@@H]3CC[C@@]4(CO)C[C@]3(CC[C@@H]21)C[C@H]4N[C@H](C)c1cccc2ccccc12
5. CC[C@@H](NC[C@@]12CC[C@@H]3[C@@](CC[C@H]4[C@@]3(C)CCC[C@@]4(C)C(=O)OC)(C[C@H]1O)C2)c1ccccc1
6. COC(=O)[C@]1(C)CCC[C@@]2(C)[C@@H]3CC[C@@]4(Cn5cc(-c6ccccc6)nn5)C[C@]3(CC[C@@H]21)CC4=O
7. COC(=O)[C@]1(C)CCC[C@@]2(C)[C@@H]3CC[C@@]4(CO)C[C@]3(CC[C@@H]21)C[C@H]4N[C@@H](C)c1ccc2ccccc2c1
8. COC(=O)[C@]1(C)CCC[C@@]2(C)[C@@H]3CC[C@@]4(CO)C[C@]3(CC[C@@H]21)C[C@H]4N[C@@H](C)c1cccc2ccccc12

Reply:
["< 20%", "< 20%", "< 20%", "< 20%", "21.8%", "54.5%", "< 20%", "50.4%"]

----------
# System: MDA-MB-231 cells
# experiment.summary: MTT antiproliferative assay, MDA-MB-231
# Format: cell-based
# measurement.context: Homo sapiens; MDA-MB-231, 10 μM, 72 h; read-out: Growth inhibition (%) ± SEM
endpoint.name: inhibition at 10 µM

Before answering, review these 5 worked examples.
| mol.smiles | tgt | inhibition at 10 µM |
| --- | --- | --- |
| COC(=O)[C@]1(C)CCC[C@@]2(C)[C@@H]3CC[C@@]4(Cn5cc(-c6ccccc6)nn5)C[C@]3(CC[C@@H]21)C[C@H]4O | MDA-MB-231 cells | < 20% |
| COC(=O)[C@]1(C)CCC[C@@]2(C)[C@@H]3CC[C@@]4(CN=[N+]=[N-])C[C@]3(CC[C@@H]21)C[C@H]4O | MDA-MB-231 cells | < 20% |
| COC(=O)[C@]1(C)CCC[C@@]2(C)[C@@H]3CC[C@@]4(Cn5cc(Cc6ccccc6)nn5)C[C@]3(CC[C@@H]21)C[C@H]4O | MDA-MB-231 cells | < 20% |
| COC(=O)[C@]1(C)CCC[C@@]2(C)[C@@H]3CC[C@@]4(CN[C@H](C)c5ccc6ccccc6c5)C[C@]3(CC[C@@H]21)C[C@H]4O | MDA-MB-231 cells | < 20% |
| CC[C@H](N[C@@H]1C[C@]23CC[C@H]4[C@@](C)(CCC[C@@]4(C)C(=O)OC)[C@@H]2CC[C@@]1(CO)C3)c1ccccc1 | MDA-MB-231 cells | < 20% |

Note: attention shifts to another entry.
Ask: Tell me its inhibition at 10 µM given CC[C@@H](N[C@@H]1C[C@]23CC[C@H]4[C@@](C)(CCC[C@@]4(C)C(=O)OC)[C@@H]2CC[C@@]1(CO)C3)c1ccccc1 as the entry.
Reply: < 20%
